This section presents compounds with their documented bioavailability values.
Assay: Oral bioavailability in mouse at 30 mg/kg
Format: ADME, organism-based
Measurement parameters: in vivo

Per the record, "CCCS(=O)(=O)Nc1ccc(F)c(Nc2ccc3ncn(C)c(=O)c3c2)c1Cl" has bioavailability of 112%

The recorded bioavailability for entry "CCCS(=O)(=O)Nc1cccc(Nc2ccc3ncn(C)c(=O)c3c2)c1C#N" equals 60%

* * *

Assay: Apparent permeability of the compound from apical to basolateral direction in pig LLC-PK1 cells
Assay type: ADME, cell-based, Sus scrofa
Here, each record is paired with measured Papp A→B data.

Compound structure	Papp A→B
CCCS(=O)(=O)Nc1cccc(Nc2ccc3ncn(C)c(=O)c3c2)c1C#N	> 8 ×10⁻⁶ cm/s

# ---- query compound ----
Lab note: measured Papp A→B of "CCCS(=O)(=O)Nc1ccc(F)c(Nc2ccc3ncn(C)c(=O)c3c2)c1Cl" was > 8 ×10⁻⁶ cm/s

Origin of the recorded values: ChEMBL document CHEMBL3232845
